test system: MS2 coat protein; experiment: apparent KD of MS2 coat protein; designed switch direction (-1 OFF switch, 1 ON switch): -1; higher = weaker reporter binding; conditions: input ligand: none
Response key: True means apparent KD of MS2 coat protein >= 60 nM; False means apparent KD of MS2 coat protein < 60 nM.

{"columns": ["seq.string", "category"],
 "data": [
  ["UAAAAGGGAGGAUAUACUUGAGGAUCACCCAAGUGAUCCAGACCCUGAACGGUCUAUAGUAGAAGGCCCAAUAA [Teinma] (Eterna round: R97, puzzle: Exclusion 3)", "False"],
  ["ACAUGUCAUCGAGGAUAUUGUACACAUGAGGAUCACCCAUGUAUUCGGUUGCUCUAGCAUGAGUUCGAGAAGGCGAUGUACAUU [Ex NG2 #83] (Eterna round: R96, puzzle: Exclusion NG 2)", "True"],
  ["AGUACUAACACGGUUGUGUUAGUACAAUAAGCUUGUGAAACAUGAGGAUCACCCAUGUCCUCAUAAGCUCGUCUUAU [salish99_TOv2_r3_070] (Eterna round: R96, puzzle: Sensor v3, turn-off variant 2)", "False"],
  ["GUUUACAAGCUAAGAUCCUACAUGAGGAUCACCCAUGUGGUCCGGUGACGUGAGUCACCGGACUUAGCUCGUCUUGC [salish99_S_TOV1_R5_089] (Eterna round: R97, puzzle: Sensor, turn-off variant 1)", "False"],
  ["GGAAUGUAAGGAUAUCCGAAAGGCGAGCGAAAGCGAGCAAAGGAGAAGGUACAUGAGGAUCACCCAUGUAAGGG [AK-MS2ROC-r4-exclusion4-11.3] (Eterna round: R97, puzzle: Exclusion 4)", "True"],
  ["AAACAGCGAGGAUAUGCAGACGCUCCUUCCUCACGUCAAGGACAUGAGGAUCACCCAUGUAGAAGGCGCACAAC [Isriteti] (Eterna round: R97, puzzle: Exclusion 2)", "True"],
  ["ACAUGAGGAUCACCCAUGUCCGUCUGGUCUGUCUCGGCUGUCGAGGAUAUAGCUCGGUAUCCGCGCUAGAAGGCGGGAGUCGGC [Aenatbe mod 96] (Eterna round: R96, puzzle: Exclusion NG 3)", "False"],
  ["UUAAUUAGCAGACUAAUACCUCACAUGAGGAUCACCCAUGUGCAGGAUAUCAGCUCGUUUAGAGCUGAGAAGGGCACUGUCUGC [ExNG3/12-A2] (Eterna round: R96, puzzle: Exclusion NG 3)", "False"],
  ["GCUCGCGGGCAAGGAUAUCCUACGCUGUUCUGGCUCGUGUCUGUUACAUGAGGAUCACCCAUGUGGGAGAAGGUGCACCAGGGC [Design 47] (Eterna round: R96, puzzle: Exclusion NG 2)", "False"],
  ["AAAUAGCAUGAGGAUAUUGAACUGUAUUCAGUACGAGAAGGCAUGACAUGAGGAUCACCCAUGUUUUGUUGGGA [EX6 #5] (Eterna round: R97, puzzle: Exclusion 6)", "False"]
]}

====

system: MS2 coat protein; test: apparent KD of MS2 coat protein; higher = weaker reporter binding; settings: Eterna round: R107; input ligand: tryptophan 2.4 mM
Hi all, reminder that labels come from apparent KD of MS2 coat protein, split as lowest (below 20 nM), middle (20 nM to below 60 nM), highest (60 nM or more)

{"columns": ["seq.string", "category"],
 "data": [
  ["AGAAUAUAGUCGGCCGCCACUCUACAUACAUGAGGAUCACCCAUGUUUACAUAGUGGAAACACAUGAGGACCGGGACAUAGGCAU [#16 Same State - Tryptophan B]", "lowest"],
  ["AAGACAUGAGGAUCACCCAUGUCGUCAACACGAGGACCGGUACGGCCGCCACUCGCAUGCCAAUGAGCGCAUGCGGCCUGGGUAU [Exclusion Tryp A GF4]", "middle"],
  ["UGUAUGUGAUCUGAUACCAGUCCAACUGGUAAAGCACGAGGAUCACCCGUGUAAAAUUGGGACCCUUGGCAGCAGAUCGCAUACU", "highest"],
  ["ACAUGAGGAUCACCCAUGUUCCUCGCCGAUACCAGUGAAGAAUUACGCCCUUGGCAGCGGAAUGAGUGUUUUGGAGAUGAGGUAC [6.aB]", "highest"],
  ["ACCAGCACACAUGAUACCAGCGACAUGAGGAUCACCCAUGUACGGCGUGUAUCGAAAGGUUGCCCUUGGCAGCAUGAUAGUGCUA [Ratiarla]", "lowest"],
  ["AAAUAAUCUAGUCCACAAUGUGACUCAGAUACCAGUGCAAAGCUACACCCUUGGCAGCUGGUUACAUGAGGAUCACCCAUGUCGU [theeternabot_exclusion_MS2_Theo_A_50]", "middle"],
  ["CAUCCUAGUACAUGAGGAUCACCCAUGUAUCGAGGACCGGUACGGCCGCCACUCGAAUGGCGGAUCGUUGAUCCUUUAGGAUGAA [Tryp A Ex t4]", "lowest"],
  ["UGGUACAUGGCGGCCGCCACUUCACGUAAAAUAAAAGCUUGAGGAUCACCCAAGUAAUAAGUUGGGAGGACCGGGUCAUGUACCU", "lowest"],
  ["AAUAACAUGAGGAUCACCCAUGUAAAAGAUACCAGAGUGAUGAUCCUCCCUUGGCAGCUUAAUAACGCUAUUGAUUACAAUAGCG [Mat - Same State Theophlline A - Mod of Eli - D6]", "middle"],
  ["GCAUUACAUGAGGAUCACCCAUGUCUAGAUACCAGAUUUGUUUGAAUCCCUUGGCAGCUAGUGGACCACCGUACACGACAUACUA [theeternabot_sameState_MS2_Theo_A_17]", "middle"],
  ["AGAGUUAGACAAAAGUCUAGCUCACCAGAAGGAGCGUCCGAAAGGACAGGUAGGUCGCUGGUGCAUGAGGAUCACCCAUGCUCCU [ArgAS 19 #OpenEnded #AlternativeMS2]", "highest"],
  ["GGCUGUCAUAGGAGGUGAAAUAUACUCGAAGGAGCGUCAUAGUAGGCAGGUAGGUCGCGAGACAUGAGGAUCACCCAUGUAGAGA [yyumullin]", "middle"]
]}
